Give measured Activity for each item. Keep answers brief.
Test system: HMEC-1
Test: Protection against oxidized LDL-induced cytotoxicity in HMEC1 cells assessed as residual cell viability after 24 hrs by MTT assay relative to control
Format: functional, Homo sapiens
Express your answer as a number followed by its unit.

In the examples that follow, each entry is paired with its recorded Activity.
Quick note, Activity for Cc1c(C)c2c(c(C)c1O)CC[C@@](C)(CCC[C@H](C)CCC[C@H](C)CCCC(C)C)O2 landed at 29%

Quick note, Activity for CCOP(=O)(/C=C/c1cc(OC)c(O)c(-c2cc(/C=N/NC(=O)c3ccncc3)cc(OC)c2O)c1)OCC landed at 31.2%

Quick note, Activity for CCOP(=O)(/C=C/c1cc(OC)c(O)c(-c2cc(/C=C/P(=O)(OCC)OCC)cc(OC)c2O)c1)OCC landed at 66%

Report Activity for each item below.
1. COc1cc(C=O)cc(-c2cc(C=O)cc(OC)c2O)c1O
2. COc1cc(/C=N/NC(=O)c2ccncc2)cc(-c2cc(/C=N/NC(=O)c3ccncc3)cc(OC)c2O)c1O

Outgoing:
["40.5%", "13.5%"]

----------
Give measured Activity for each item. Keep answers brief.
System: HMEC-1
Assay: Protection against oxidized LDL-induced cytotoxicity in HMEC1 cells assessed as residual cell viability after 24 hrs by MTT assay relative to control
Type: functional, Homo sapiens
Numbers only, in %.

In the examples that follow, each entry is paired with its recorded Activity.
Quick note, Activity for CC(C)(Sc1cc(C(C)(C)C)c(O)c(C(C)(C)C)c1)Sc1cc(C(C)(C)C)c(O)c(C(C)(C)C)c1 landed at 92

Quick note, Activity for CCOP(=O)(/C=C/c1cc(OC)c(O)c(-c2cc(C=O)cc(OC)c2O)c1)OCC landed at 63.5

Quick note, Activity for COc1cc(/C=N/Nc2nncc3ccccc23)cc(-c2cc(/C=N/Nc3nncc4ccccc34)cc(OC)c2O)c1O.Cl landed at 82

More entries:
Quick note, Activity for CCOP(=O)(/C=C/c1cc(OC)c(O)c(-c2cc(/C=N/Nc3nncc4ccccc34)cc(OC)c2O)c1)OCC.Cl landed at 61.2
